Biological target: engineered OX2R carrying an additional amino-terminal Avi-tag, biotinylated (Homo sapiens, UniProt O43614, residues V261–A291 deleted, biotin on the Avi-tag (BirA biotin-protein ligase))
Sequence (O43614 other isoform, or with tags, fused parts or gaps residues V261–A291 deleted | residues V261–A291 deleted): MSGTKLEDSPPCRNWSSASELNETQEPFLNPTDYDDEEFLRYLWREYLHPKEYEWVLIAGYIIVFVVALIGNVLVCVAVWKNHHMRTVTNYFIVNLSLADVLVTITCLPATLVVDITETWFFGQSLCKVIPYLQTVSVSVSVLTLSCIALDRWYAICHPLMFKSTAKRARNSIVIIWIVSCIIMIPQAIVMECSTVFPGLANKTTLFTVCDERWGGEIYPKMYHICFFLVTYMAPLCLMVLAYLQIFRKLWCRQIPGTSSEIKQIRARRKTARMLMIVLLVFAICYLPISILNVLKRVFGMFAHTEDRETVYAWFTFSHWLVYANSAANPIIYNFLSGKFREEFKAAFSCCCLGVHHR

# binder, binding result
measured = [
    ("54 (VHH) VHH: QVQLVESGGGLVQAGGSLRLSCAASGFPVQHYVMYWYRQAPGKEREWVAAIDSSGAHTVYADSVKGRFTISRDNAKNTVYLQMNSLKPEDTAVYYCEVYVGWFYHGQGTQVTVS", "binds"),
    ("40 (VHH) VHH: QLQLVESGGGLVQAGGSLRLSCAASGFPVRSYTMYWYSQAPGKEREWVAAINSQGNTTAYADSVKGRFTISRDNAKNTVYLQMNSLKPEDTAVYYCEVYVGYWYHGQGTQVTVS", "binds"),
    ("9 (VHH) VHH: QVQLVESGGGLVQAGGSLRLSCAASGFPVKQHHMYWYRQAPGKEREWVAAIESGGKETRYADSVKGRFTISRDNAKNTVYLQMNSLKPEDTAVYYCNVKDWGWWWTNYDYWGQGTQVTVS", "binds"),
]
